- Study target: Glutamate receptor ionotropic, kainate
- Test protocol: Binding affinity towards Ionotropic glutamate receptor kainate
Reported Ki values for the following compounds.
Enter your answer as a number in µM; do not include the unit.

// solved cases for Ki follow
>>> df
                         structure_notation                            study_target  unit_annotation  result_number
0  N[C@@H](C(=O)O)[C@H]1[C@@H](C(=O)O)[C@H]1c1ccccc1  Glutamate receptor ionotropic, kainate               µM            117
1  N[C@@H](C(=O)O)[C@@H]1[C@H](C(=O)O)[C@@H]1c1ccccc1  Glutamate receptor ionotropic, kainate               µM            122
2  N[C@H](C(=O)O)[C@@H]1[C@@H](C(=O)O)[C@H]1c1ccccc1  Glutamate receptor ionotropic, kainate               µM            126
3  N[C@@H](C(=O)O)[C@H]1[C@@H](C(=O)O)[C@@H]1c1ccccc1  Glutamate receptor ionotropic, kainate               µM            155

Could you now look at the following compound, please?
Data point: N[C@@H](C(=O)O)[C@H]1[C@H](C(=O)O)[C@H]1c1ccccc1 ; Ki = 15

----------
Reported Ki values for the following molecules.
- Study target: Glutamate NMDA receptor
- Test protocol: Binding affinity towards Ionotropic glutamate receptor NMDA

// solved cases for Ki follow
>>> df
                         structure_notation             study_target  measurement_name    result
0  N[C@@H](C(=O)O)[C@@H]1[C@H](C(=O)O)[C@@H]1c1ccccc1  Glutamate NMDA receptor                Ki  > 200 µM
1  N[C@@H](C(=O)O)[C@H]1[C@@H](C(=O)O)[C@H]1c1ccccc1  Glutamate NMDA receptor                Ki  > 200 µM

Data point: N[C@H](C(=O)O)[C@@H]1[C@H](C(=O)O)[C@@H]1c1ccccc1 ; Ki = > 200 µM

----------
- Study target: Glutamate receptor ionotropic, AMPA (Rattus norvegicus, UniProt P19490+P19491+P19492+P19493)
- Test protocol: Binding affinity towards Ionotropic glutamate receptor AMPA
pKi: −log10 of the molar value.
Measurement name: pKi

// solved cases for pKi follow
>>> df
                                   compound  result
0  N[C@H](C(=O)O)[C@H]1[C@H](C(=O)O)[C@@H]1c1ccccc1  < 3.66
1  N[C@H](C(=O)O)[C@@H]1[C@@H](C(=O)O)[C@H]1c1ccccc1  < 3.66
2  N[C@H](C(=O)O)[C@H]1[C@@H](C(=O)O)[C@H]1c1ccccc1  < 3.66
3  N[C@@H](C(=O)O)[C@@H]1[C@@H](C(=O)O)[C@H]1c1ccccc1  < 3.66
4  N[C@@H](C(=O)O)[C@H]1[C@H](C(=O)O)[C@@H]1c1ccccc1  < 3.52

Data point: N[C@@H](C(=O)O)[C@H]1[C@@H](C(=O)O)[C@H]1c1ccccc1 ; pKi = < 3.66

Data point: N[C@H](C(=O)O)[C@@H]1[C@H](C(=O)O)[C@@H]1c1ccccc1 ; pKi = < 3.66

Data point: N[C@@H](C(=O)O)[C@@H]1[C@H](C(=O)O)[C@H]1c1ccccc1 (stereo in doubt; 44) ; pKi = < 3.66

Data point: N[C@H](C(=O)O)[C@@H]1[C@@H](C(=O)O)[C@@H]1c1ccccc1 ; pKi = < 3.66
